pIC50: −log10 of the molar value.
The following compounds have recorded pIC50 on UniProt Q9UM73.
Sequence (Q9UM73 whole entry): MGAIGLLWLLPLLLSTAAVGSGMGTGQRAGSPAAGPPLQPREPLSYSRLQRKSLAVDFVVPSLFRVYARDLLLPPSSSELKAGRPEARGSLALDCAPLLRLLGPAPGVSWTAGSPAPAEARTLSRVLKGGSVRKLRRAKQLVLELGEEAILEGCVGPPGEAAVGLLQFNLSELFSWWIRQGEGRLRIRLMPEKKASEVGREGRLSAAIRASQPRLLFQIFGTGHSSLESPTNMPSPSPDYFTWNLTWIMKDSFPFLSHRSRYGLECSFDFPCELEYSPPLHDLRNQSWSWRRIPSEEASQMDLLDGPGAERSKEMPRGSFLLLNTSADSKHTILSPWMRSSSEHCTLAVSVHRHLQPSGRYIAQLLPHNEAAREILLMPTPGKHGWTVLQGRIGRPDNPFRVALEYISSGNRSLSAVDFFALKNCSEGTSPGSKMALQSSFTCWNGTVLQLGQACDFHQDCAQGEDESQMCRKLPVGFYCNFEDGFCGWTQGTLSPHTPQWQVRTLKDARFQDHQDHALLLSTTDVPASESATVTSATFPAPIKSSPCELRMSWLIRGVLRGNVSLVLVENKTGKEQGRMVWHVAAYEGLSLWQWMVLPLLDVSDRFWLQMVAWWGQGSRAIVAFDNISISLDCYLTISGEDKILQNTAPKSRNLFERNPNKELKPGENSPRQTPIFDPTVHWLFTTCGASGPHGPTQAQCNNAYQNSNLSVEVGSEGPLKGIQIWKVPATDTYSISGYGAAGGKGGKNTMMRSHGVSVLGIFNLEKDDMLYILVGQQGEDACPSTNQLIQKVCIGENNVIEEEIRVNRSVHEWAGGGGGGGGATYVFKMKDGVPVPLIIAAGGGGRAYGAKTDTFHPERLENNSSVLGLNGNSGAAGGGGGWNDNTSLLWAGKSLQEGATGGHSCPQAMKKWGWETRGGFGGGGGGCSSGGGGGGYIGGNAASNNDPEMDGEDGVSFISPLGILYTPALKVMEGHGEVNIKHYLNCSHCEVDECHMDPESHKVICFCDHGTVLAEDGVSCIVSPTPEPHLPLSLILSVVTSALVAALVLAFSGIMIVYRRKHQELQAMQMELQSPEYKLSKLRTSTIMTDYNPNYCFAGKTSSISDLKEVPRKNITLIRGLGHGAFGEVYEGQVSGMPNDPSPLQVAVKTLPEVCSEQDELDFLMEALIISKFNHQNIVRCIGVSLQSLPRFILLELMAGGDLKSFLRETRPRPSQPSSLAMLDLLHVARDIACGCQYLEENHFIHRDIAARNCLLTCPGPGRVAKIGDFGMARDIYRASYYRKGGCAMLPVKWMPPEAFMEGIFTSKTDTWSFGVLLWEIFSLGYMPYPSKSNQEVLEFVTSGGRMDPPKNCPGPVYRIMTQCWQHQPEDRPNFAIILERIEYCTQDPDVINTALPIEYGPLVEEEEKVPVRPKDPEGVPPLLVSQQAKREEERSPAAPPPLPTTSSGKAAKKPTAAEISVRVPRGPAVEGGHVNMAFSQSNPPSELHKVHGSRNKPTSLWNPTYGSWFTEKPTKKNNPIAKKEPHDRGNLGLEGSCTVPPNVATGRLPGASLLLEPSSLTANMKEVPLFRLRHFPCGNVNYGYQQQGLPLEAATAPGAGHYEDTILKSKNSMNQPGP

- STRUCTURE_STRING: "CC(=O)/C=C/c1c(Oc2ccccc2C(C)=O)nc[nH]c1=O"
  QUANTITY: "pIC50"
  VALUE_OBSERVED: "< 4.40"
- STRUCTURE_STRING: "CC(=O)/C=C/c1c(Oc2cccc(C#N)c2)nc[nH]c1=O"
  QUANTITY: "pIC50"
  VALUE_OBSERVED: "< 4.40"

Attention now turns to another entry.
What is its pIC50 for UniProt Q9UM73? Entry: `CC(=O)/C=C/c1c(Oc2ccc(O)cc2)nc[nH]c1=O`
5.12
